Ki, Rho-associated protein kinase 1 (Homo sapiens, UniProt Q13464), per-entry values.
Measured attribute: Ki (µM)

INSERT INTO assay_data (compound_smiles, result_units, comparison_symbol, measured_value) VALUES
  ('CC(C)Cn1cc(-c2ccccc2)nc1-c1nonc1N', 'µM', '>', 3.3),
  ('CC(C)Cn1c(-c2nonc2N)nc2ccccc21', 'µM', '=', 0.93),
  ('COc1ccccc1-n1c(-c2nonc2N)nc2ccccc21', 'µM', '=', 1.3),
  ('COC(=O)c1ccc2c(c1)nc(-c1nonc1N)n2C1CCC1', 'µM', '>', 3.3),
  ('Nc1nonc1-c1nc2ccccc2n1CC1CC1', 'µM', '=', 0.36);

====

Target: Ribosomal protein S6 kinase beta-1 (Homo sapiens, UniProt P23443)
Sequence (P23443 whole entry): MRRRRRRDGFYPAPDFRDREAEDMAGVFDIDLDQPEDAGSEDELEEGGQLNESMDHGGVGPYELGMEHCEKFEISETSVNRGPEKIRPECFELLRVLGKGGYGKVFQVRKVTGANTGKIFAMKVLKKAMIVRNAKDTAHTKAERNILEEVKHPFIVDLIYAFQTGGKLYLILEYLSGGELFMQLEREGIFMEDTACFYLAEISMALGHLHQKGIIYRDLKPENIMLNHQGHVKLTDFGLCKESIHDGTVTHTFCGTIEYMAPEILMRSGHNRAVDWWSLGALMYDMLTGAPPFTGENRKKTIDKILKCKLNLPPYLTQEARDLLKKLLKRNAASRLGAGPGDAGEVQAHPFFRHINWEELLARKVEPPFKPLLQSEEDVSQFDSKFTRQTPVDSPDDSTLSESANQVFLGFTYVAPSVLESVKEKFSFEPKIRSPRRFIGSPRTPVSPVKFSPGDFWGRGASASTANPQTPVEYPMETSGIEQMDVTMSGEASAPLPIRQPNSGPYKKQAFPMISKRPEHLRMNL
Assay: Inhibition of p70S6K assessed as decrease in NADH absorbance at 340 nm in the presence of
pKi: −log10 of the molar value.
Measured attribute: pKi

INSERT INTO results (compound, measured_attribute, comparison_symbol, measured_value) VALUES
  ('Nc1nonc1-c1nc2ccccc2n1C1CCCCC1', 'pKi', '=', 7.92),
  ('COC(=O)c1ccc2c(c1)nc(-c1nonc1N)n2C1CCC1', 'pKi', '=', 6.39),
  ('N#Cc1ccccc1-n1c(-c2nonc2N)nc2ccccc21', 'pKi', '=', 7.59),
  ('COc1ccc2c(c1)nc(-c1nonc1N)n2C1CCC1', 'pKi', '=', 7.41),
  ('CC(C)Cn1c(-c2nonc2N)nc2ccccc21', 'pKi', '=', 7.66),
  ('CCn1c(-c2nonc2N)nc2ccccc21 [GW549034X]', 'pKi', '=', 7.30),
  ('Nc1nonc1-c1nc2ccccc2n1C1CCC1', 'pKi', '=', 8.40),
  ('CC(C)n1c(-c2nonc2N)nc2ccccc21', 'pKi', '=', 7.40),
  ('Nc1nonc1-c1nc2cc(CO)ccc2n1C1CCC1', 'pKi', '=', 7.80),
  ('Nc1nonc1-c1nc2ccccc2n1CC1CCC1', 'pKi', '=', 7.16),
  ('Nc1nonc1-c1nc2ccccc2n1CC1CC1', 'pKi', '=', 7.92),
  ('Nc1nonc1-c1nc2cc(O)ccc2n1C1CCC1', 'pKi', '>', 9.00),
  ('CC(C)Cn1cc(C#N)nc1-c1nonc1N', 'pKi', '=', 5.80),
  ('Nc1ccc2c(c1)nc(-c1nonc1N)n2C1CCC1', 'pKi', '>', 9.00),
  ('Cc1cn(CC(C)C)c(-c2nonc2N)n1', 'pKi', '=', 6.47);

====

Ki, Glycogen synthase kinase-3 beta (Homo sapiens), per-entry values.
Measured attribute: Ki

INSERT INTO assay_data (compound_smiles, tested_system, measured_attribute, measured_value) VALUES
  ('Nc1nonc1-c1nc2ccccc2n1C1CC1', 'Glycogen synthase kinase-3 beta (Homo sapiens)', 'Ki', '> 3.3 µM'),
  ('CC(=O)Nc1ccc2c(c1)nc(-c1nonc1N)n2C1CCC1', 'Glycogen synthase kinase-3 beta (Homo sapiens)', 'Ki', '> 3.3 µM'),
  ('Nc1nonc1-c1nc2cc(CO)ccc2n1C1CCC1', 'Glycogen synthase kinase-3 beta (Homo sapiens)', 'Ki', '> 3.3 µM');
